biological target: T1, H4-15 histone H4 tail peptide
T1 chain: GRGKGGKGLGKGGAK
property-name: log10(V/K) (log10 of the value in M⁻¹ s⁻¹)
A value of 2 here means V/K of 100 in M⁻¹ s⁻¹, since values are log10.

Report log10(V/K) for semi-synthetic p300 HAT domain T1357L (protein) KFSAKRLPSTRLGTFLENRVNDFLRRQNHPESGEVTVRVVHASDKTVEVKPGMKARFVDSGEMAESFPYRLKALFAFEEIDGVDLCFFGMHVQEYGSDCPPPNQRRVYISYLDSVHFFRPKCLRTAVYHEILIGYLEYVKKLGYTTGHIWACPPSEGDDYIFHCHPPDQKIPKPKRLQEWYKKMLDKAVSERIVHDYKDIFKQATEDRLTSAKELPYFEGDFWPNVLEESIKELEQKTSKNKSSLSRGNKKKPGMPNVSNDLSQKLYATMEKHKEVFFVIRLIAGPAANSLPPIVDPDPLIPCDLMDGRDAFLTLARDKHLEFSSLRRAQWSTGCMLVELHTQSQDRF please.
4.27

Report log10(V/K) for semi-synthetic p300 HAT domain E1505R/D1625R/D1628R triple mutant (protein) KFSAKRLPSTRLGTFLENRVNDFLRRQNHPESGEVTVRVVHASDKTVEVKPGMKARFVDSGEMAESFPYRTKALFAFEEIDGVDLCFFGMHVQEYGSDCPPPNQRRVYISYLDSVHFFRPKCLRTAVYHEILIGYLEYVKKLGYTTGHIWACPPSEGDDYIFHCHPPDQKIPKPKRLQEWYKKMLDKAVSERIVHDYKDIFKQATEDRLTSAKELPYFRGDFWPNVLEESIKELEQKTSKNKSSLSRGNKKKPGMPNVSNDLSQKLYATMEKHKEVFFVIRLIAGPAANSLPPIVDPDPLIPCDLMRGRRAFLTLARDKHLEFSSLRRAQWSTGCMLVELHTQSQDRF please.
2.37

Report log10(V/K) for semi-synthetic p300 HAT domain D1625R/D1628R double mutant (protein) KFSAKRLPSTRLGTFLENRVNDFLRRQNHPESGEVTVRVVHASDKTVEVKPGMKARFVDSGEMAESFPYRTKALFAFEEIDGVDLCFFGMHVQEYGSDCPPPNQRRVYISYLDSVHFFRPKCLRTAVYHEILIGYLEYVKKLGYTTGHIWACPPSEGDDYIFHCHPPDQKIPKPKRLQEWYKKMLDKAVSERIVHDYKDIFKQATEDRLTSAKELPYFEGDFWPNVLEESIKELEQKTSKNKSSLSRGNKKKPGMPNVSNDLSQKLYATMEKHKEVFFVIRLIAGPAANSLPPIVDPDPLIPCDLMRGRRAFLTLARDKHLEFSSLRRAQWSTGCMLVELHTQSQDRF please.
3.06

Report log10(V/K) for semi-synthetic p300 HAT domain E1505R (protein) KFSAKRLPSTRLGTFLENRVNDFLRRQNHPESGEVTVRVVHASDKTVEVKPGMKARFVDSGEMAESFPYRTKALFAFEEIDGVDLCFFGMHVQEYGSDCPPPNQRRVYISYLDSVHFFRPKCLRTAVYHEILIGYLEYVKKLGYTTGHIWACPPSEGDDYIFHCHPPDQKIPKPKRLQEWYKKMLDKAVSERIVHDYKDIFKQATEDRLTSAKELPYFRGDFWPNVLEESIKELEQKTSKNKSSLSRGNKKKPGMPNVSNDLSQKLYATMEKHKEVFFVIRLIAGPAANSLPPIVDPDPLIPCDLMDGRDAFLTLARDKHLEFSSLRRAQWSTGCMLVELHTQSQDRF please.
3.30

Report log10(V/K) for semi-synthetic p300 HAT domain D1625R (protein) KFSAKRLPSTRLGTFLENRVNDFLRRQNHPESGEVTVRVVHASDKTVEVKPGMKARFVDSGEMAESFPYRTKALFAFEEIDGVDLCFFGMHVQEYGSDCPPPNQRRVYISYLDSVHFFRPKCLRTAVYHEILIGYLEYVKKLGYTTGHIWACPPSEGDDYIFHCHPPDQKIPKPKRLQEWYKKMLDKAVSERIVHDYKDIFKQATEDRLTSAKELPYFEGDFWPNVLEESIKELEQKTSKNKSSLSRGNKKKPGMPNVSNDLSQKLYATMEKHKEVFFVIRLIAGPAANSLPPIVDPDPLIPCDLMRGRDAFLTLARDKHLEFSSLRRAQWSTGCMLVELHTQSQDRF please.
3.75
